MEASURED TARGET: Cyclin-dependent kinase 1/cyclin B1 (Homo sapiens)
Sequence (P06493 whole entry): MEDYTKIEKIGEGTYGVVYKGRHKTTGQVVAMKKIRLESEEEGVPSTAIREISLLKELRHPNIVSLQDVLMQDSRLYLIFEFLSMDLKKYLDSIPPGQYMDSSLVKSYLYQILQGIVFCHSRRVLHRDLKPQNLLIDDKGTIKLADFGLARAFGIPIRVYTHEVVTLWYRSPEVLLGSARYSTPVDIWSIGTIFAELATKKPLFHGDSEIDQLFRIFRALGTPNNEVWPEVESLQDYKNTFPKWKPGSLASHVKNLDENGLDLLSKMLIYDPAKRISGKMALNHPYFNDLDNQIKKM
Sequence (P14635 whole entry, further chain): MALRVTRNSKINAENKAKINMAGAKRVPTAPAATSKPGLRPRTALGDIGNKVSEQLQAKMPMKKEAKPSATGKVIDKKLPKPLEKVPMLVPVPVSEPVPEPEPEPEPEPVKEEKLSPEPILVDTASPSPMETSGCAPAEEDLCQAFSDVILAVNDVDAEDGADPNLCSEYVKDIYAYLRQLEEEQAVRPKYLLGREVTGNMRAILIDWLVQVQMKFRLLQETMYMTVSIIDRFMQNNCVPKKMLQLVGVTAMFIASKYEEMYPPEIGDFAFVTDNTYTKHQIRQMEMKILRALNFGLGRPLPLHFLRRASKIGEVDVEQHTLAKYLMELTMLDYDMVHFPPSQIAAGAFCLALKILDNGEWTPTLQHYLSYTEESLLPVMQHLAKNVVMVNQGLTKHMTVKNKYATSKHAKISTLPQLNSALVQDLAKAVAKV
EXPERIMENT DESCRIPTION: Inhibition of CDK1/cyclin B by radiometric assay
ENDPOINT NAME: log10 Ki (log10 of the value in nM)
Hello, just confirming the data are log10 of Ki with units of nM.

Solved entries:
MOLECULE SMILES: NS(=O)(=O)c1cccc(Nc2nccc(-c3nn(Cc4cccnc4)c4ccccc34)n2)c1
log10 Ki: 3.66

MOLECULE SMILES: Cn1nc(-c2ccnc(Nc3ccc(S(N)(=O)=O)cc3)n2)c2ccccc21
log10 Ki: 1.98

MOLECULE SMILES: CCCn1nc(-c2ccnc(Nc3ccc(S(N)(=O)=O)cc3)n2)c2ccccc21
log10 Ki: 2.10

Please give the measured log10 Ki for this compound: CCn1nc(-c2ccnc(Nc3cccc(S(N)(=O)=O)c3)n2)c2ccccc21 2.67

Now try CCn1nc(-c2ccnc(Nc3ccc(S(N)(=O)=O)cc3)n2)c2ccccc21 . 1.74

Now try NS(=O)(=O)c1ccc(Nc2nccc(-c3nn(Cc4cccnc4)c4ccccc34)n2)cc1 . 2.46

Now try NS(=O)(=O)c1ccc(Nc2nccc(-n3ncc4ccccc43)n2)cc1 . 1.45

Now try CCCn1nc(-c2ccnc(Nc3cccc(S(N)(=O)=O)c3)n2)c2ccccc21 . 2.98

Now try Cn1nc(-c2ccnc(Nc3cccc(S(N)(=O)=O)c3)n2)c2ccccc21 . 1.79

Now try NS(=O)(=O)c1cccc(Nc2nccc(-n3ncc4ccccc43)n2)c1 . 1.72

---

MEASURED TARGET: CDK9/cyclin T1 (Homo sapiens, UniProt P50750)
Sequence (O60563 whole entry): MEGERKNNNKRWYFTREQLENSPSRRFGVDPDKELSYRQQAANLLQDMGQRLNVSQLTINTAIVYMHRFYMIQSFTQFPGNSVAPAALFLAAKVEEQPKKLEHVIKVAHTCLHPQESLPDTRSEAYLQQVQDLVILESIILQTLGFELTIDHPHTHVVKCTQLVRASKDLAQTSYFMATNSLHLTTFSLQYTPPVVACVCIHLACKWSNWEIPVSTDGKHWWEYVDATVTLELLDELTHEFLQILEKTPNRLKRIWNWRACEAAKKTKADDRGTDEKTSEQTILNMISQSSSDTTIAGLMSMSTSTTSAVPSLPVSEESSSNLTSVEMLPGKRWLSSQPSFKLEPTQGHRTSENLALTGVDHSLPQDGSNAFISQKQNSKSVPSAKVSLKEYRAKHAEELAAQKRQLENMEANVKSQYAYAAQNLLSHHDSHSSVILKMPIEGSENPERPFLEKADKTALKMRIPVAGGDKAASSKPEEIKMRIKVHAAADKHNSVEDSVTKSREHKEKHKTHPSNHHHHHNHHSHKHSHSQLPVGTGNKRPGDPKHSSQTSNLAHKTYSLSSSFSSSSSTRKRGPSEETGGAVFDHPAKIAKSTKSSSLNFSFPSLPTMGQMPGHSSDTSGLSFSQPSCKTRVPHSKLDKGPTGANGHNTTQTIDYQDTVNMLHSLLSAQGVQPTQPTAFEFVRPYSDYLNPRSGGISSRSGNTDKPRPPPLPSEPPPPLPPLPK
Sequence (P50750 whole entry): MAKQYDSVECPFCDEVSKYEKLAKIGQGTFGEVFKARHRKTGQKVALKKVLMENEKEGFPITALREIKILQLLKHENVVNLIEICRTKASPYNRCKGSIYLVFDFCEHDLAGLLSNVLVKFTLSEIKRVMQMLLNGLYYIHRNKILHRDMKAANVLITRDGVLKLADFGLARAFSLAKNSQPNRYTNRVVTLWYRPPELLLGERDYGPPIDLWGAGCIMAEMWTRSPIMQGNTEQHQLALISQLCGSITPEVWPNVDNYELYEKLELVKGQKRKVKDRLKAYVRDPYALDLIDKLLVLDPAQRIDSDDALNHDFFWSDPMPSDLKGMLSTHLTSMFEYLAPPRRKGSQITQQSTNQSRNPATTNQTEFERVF
EXPERIMENT DESCRIPTION: Inhibition of CDK9/cyclin-T1 by radiometric assay
The molecules listed here are annotated with their pKi.
// pKi: -log10(molar conc.)

MOLECULE SMILES: CCn1nc(-c2ccnc(Nc3cccc(S(N)(=O)=O)c3)n2)c2ccccc21
pKi: 6.81

MOLECULE SMILES: NS(=O)(=O)c1cccc(Nc2nccc(-c3nn(Cc4cccnc4)c4ccccc34)n2)c1
pKi: 6.50

MOLECULE SMILES: CCCn1nc(-c2ccnc(Nc3cccc(S(N)(=O)=O)c3)n2)c2ccccc21
pKi: 6.55

MOLECULE SMILES: CCn1nc(-c2ccnc(Nc3ccc(S(N)(=O)=O)cc3)n2)c2ccccc21
pKi: 6.60

Which measured pKi belongs to Cn1nc(-c2ccnc(Nc3cccc(S(N)(=O)=O)c3)n2)c2ccccc21 , tested on CDK9/cyclin T1 (Homo sapiens, UniProt P50750)? 7.01

---

MEASURED TARGET: CDK9/cyclin T1 (Homo sapiens, UniProt P50750)
EXPERIMENT DESCRIPTION: Inhibition of CDK9/cyclin-T1 by radiometric assay
The compounds listed here are annotated with their pKi.
// pKi: -log10(molar conc.)

MOLECULE SMILES: Cn1nc(-c2ccnc(Nc3ccc(S(N)(=O)=O)cc3)n2)c2ccccc21
MEASURED NUMBER: 6.85

Which measured pKi belongs to NS(=O)(=O)c1ccc(Nc2nccc(-n3ncc4ccccc43)n2)cc1 , tested on CDK9/cyclin T1 (Homo sapiens, UniProt P50750)? 7.04

Now try CCCn1nc(-c2ccnc(Nc3ccc(S(N)(=O)=O)cc3)n2)c2ccccc21 . 6.75

Now try NS(=O)(=O)c1cccc(Nc2nccc(-n3ncc4ccccc43)n2)c1 . 7.77

Now try NS(=O)(=O)c1ccc(Nc2nccc(-c3nn(Cc4cccnc4)c4ccccc34)n2)cc1 . 6.68
